Target: W146A Orco (Drosophila melanogaster, UniProt Q9VNB5, W150A)
Assay: Two-electrode voltage-clamp, W146A mutant Orco
measured_endpoint: pEC50
Just the number, please; pEC50 means minus log10 of the concentration in mol/L.

// query Return reported pEC50; argument: CC(=O)OCCc1ccccc1 [PA, phenethyl acetate]
// result 4.75

* * *

Target: Or1a/Orco (Drosophila melanogaster, UniProt Q9VNB5+Q9W5G6)
Sequence (Q9W5G6 1-392): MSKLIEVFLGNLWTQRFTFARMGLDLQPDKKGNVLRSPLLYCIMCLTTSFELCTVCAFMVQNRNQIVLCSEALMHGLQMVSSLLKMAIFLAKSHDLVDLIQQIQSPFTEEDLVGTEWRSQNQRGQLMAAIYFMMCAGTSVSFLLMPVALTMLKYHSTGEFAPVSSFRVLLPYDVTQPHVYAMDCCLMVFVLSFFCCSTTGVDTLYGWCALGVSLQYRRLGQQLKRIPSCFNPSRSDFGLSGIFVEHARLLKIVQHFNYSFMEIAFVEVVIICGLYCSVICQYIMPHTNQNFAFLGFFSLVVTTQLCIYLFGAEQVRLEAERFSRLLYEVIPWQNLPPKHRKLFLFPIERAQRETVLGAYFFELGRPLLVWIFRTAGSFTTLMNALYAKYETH
Sequence (Q9VNB5 1-486): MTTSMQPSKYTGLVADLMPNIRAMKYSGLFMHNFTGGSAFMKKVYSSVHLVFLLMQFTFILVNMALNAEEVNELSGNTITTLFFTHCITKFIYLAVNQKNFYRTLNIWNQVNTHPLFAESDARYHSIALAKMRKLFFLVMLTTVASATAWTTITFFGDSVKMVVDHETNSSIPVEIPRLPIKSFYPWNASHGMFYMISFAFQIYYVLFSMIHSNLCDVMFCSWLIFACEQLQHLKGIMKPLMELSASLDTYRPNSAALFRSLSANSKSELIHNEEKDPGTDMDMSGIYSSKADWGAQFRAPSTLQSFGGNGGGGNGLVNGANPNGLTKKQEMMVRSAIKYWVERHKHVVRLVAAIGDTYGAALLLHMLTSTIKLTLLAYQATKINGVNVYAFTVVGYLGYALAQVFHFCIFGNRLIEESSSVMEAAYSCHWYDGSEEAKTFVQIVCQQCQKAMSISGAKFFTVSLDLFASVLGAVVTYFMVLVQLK
Experiment: Two-electrode voltage-clamp in Xenopus laevis oocytes expressing Or1a/Orco
Conditions: TEVC, Xenopus oocytes, holding potential −80 mV, mean ± SEM; read-out: half-maximal effective concentration (EC50)
measured_endpoint: EC50 (nM)
I only need the number, in nM, no unit after it.

// query // lookup EC50 | system=Or1a/Orco (Drosophila melanogaster, UniProt Q9VNB5+Q9W5G6) | key= CC(=O)OCCc1ccccc1 [PA, phenethyl acetate]
// result 2100

Where do the numbers come from? From paper PMC12155335.
